System: U251 CNS
Protocol details: NCI-60 one-dose screen, 48 h (100 = growth as untreated, 0 = no growth, -100 = all killed)
Experimental parameters: 10 µM
The panel holds about 83,000 compounds, 20% with a hit somewhere; the sample as a whole holds those more often.
Please provide measured growth for the entries that follow.
Answers are plain numbers, in %.

COC1[C@@H]2C[C@H]3C(C)(C)O[C@@](C/C=C(/C)C(=O)O)(C2=O)[C@]32Oc3c(CC=C(C)C)c4c(c(O)c3C(=O)[C@H]12)C=CC(C)(C)O4 (some centres not stated) : -91.1
COc1cccc2c1cc([N+](=O)[O-])c1c(C(=O)O)cc3c(c12)OCO3 : 103
CCC(C)[C@H]1C(=O)O[C@H](C(C)C)C(=O)N(C)[C@@H](C(C)C)C(=O)O[C@H](C(C)C)C(=O)N(C)[C@@H](C(C)C)C(=O)O[C@H](C(C)C)C(=O)N1C (some centres not stated) : 13.5
CC1=C[C@H]2O[C@@H]3C[C@@H](O)[C@](C)([C@@]2(C)CC1)[C@@]31CO1 : 15.4
CC1=C2C(=C[C@@](C)(C=O)[C@@H]2O)C(=O)[C@](C)(O)C12CC2 : 4.74

// each listed compound needs a value for growth
1. C=C1[C@@H](C)C2[C@H](Cc3ccccc3)NC(=O)[C@]23[C@H](OC(C)=O)/C=C/[C@@](C)(O)C(=O)[C@@H](C)C/C=C/[C@H]3[C@@H]1O (some centres not stated)
2. N#Cc1nc(-c2ccccc2)oc1N1CCC(S(=O)(=O)F)CC1

Response:
[29.1, 98.6]

====

For each entry below, report its growth value.
Test system: HL-60(TB) leukemia
Protocol details: NCI-60 one-dose screen, 48 h (100 = growth as untreated, 0 = no growth, -100 = all killed)
Experimental parameters: 10 µM unless noted
Compounds without any hit were thinned out: in the full panel of roughly 83,000, 20% have a hit.
Give bare numbers, in %.

Please go through the list and note growth for each molecule.
1. Clc1nc2ccccc2nc1-c1nnc(C2CCCCC2)o1
2. CC1=C(C)C(=O)C(Nc2ccc(C)c(C)c2)=C(Br)C1=O

Response:
1: 66.6; 2: -37.7

Please give growth for each item listed below.
1. C#C[C@]1(O)CC[C@H]2[C@@H]3CC=C4c5sc(NCc6ccccc6)nc5CC[C@]4(C)[C@H]3CC[C@@]21C
2. O=S(=O)(Nc1ccc2c(c1)OC(F)(F)O2)c1ccc(-c2cnc(C3CC3)o2)cc1
3. O=C(O)c1ccc(-n2c(=O)n(-c3cccc(C(F)(F)F)c3)c(=O)c3cc(-c4ccc(F)cc4F)ccc32)cc1
4. Clc1ccc(-c2cn3cc(Cc4ccc(Cl)c(Cl)c4)sc3n2)cc1
5. O=c1oc2ccc(-c3ccc(F)cc3F)cc2c(=O)n1-c1cccc(C(F)(F)F)c1
6. O=C(CCCCCCN1CC(=O)N2[C@@H](c3ccc(Cl)s3)c3[nH]c4ccccc4c3C[C@H]2C1=O)NO

Response:
[24, 3.85, -41.4, 80.3, -32.7, 1.42]

Could you report growth for every entry in the following list?
1. C=C(C)C(=O)O[C@H]1C[C@@]2(C)OC(=CC2=O)[C@H](C)[C@H](O)[C@H]2OC(=O)C(=C)[C@@H]21
2. CC(=O)N(O)CCCCCNC(=O)CCC(=O)N(O)CCCCCNC(=O)CCC(=O)N(O)CCCCCN(CCCCCCCCCC[P+](c1ccccc1)(c1ccccc1)c1ccccc1)CCCCCCCCCC[P+](c1ccccc1)(c1ccccc1)c1ccccc1
3. CN1CCN(Cc2ccc(NC(=O)c3cncc(C#Cc4cnc5ccc(O[C@H]6CCOC6)nn45)c3)cc2C(F)(F)F)CC1

Response:
1. 14.3
2. -25.7
3. -41.2

// each listed molecule needs a value for growth
1. COc1ccc(C(=O)CSc2nc3c(c(Nc4ccc(S(N)(=O)=O)cc4)n2)CCCC3)cc1
2. CC(C)NC(=O)c1cc(-c2ccc(NC(=O)Nc3ccc(N4CCOCC4)c(C(F)(F)F)c3)cc2)nc2cccnc12

Response:
[101, 12.6]
